- Tested on: MALME-3M melanoma
- Run description: NCI-60 one-dose screen, 48 h (100 = growth as untreated, 0 = no growth, -100 = all killed)
- Test context: 10 µM unless noted
Compounds without any hit were thinned out: in the full panel of roughly 83,000, 20% have a hit.
Listing of entries alongside the reported growth.
Endpoint: growth (%)

| Mol smiles | Units label | Observed measurement |
| --- | --- | --- |
| O=C(NC[C@H](O)CN1CCc2ccccc2C1)c1cc(NC2COC2)ncn1 | % | 93.3 |
| Cc1c(Cl)cccc1NC(=O)c1sc2nc3c(cc2c1N)CN(Cc1ccccc1)CC3 | % | 49.5 |
| N#Cc1c(NC(=O)c2cccs2)[n+]([O-])c2cc(C(F)(F)F)ccc2[n+]1[O-] | % | 132 |
| COc1cc(-c2csc(NC(=O)Nc3ccc(C(F)(F)F)cc3)n2)cc(OC)c1OC | % | -12.1 |
| NC(=O)c1ccc2nc3c(n2c1)C(=O)C(=O)c1ccccc1-3 | % | -97.3 |

----------
- System: OVCAR-8 ovarian
- Run description: NCI-60 one-dose screen, 48 h (100 = growth as untreated, 0 = no growth, -100 = all killed)
- Test context: 10 µM unless noted
About 83,000 compounds went through this panel and 20% of them were active in at least one assay; those are over-represented in the sample as a whole.

| Compound | growth (%) |
| --- | --- |
| O=C1Nc2ccc(Br)cc2/C1=N\N=C/c1cn(Cc2ccccc2)c2ccccc12 | 96.1 |
| COc1ccc2nc3c(n2c1)C(=O)C(=O)c1ccccc1-3 | 9.51 |
| Cc1cnc(SCc2ccc(Cl)cc2Cl)nc1Nc1ccc(Cl)c(Cl)c1 | 91.9 |
| CC(=O)[C@@H]1CC[C@]2(C(=O)O)CC[C@]3(C)[C@H](CC[C@@H]4[C@@]5(C)Cc6c([nH]c7ccccc67)C(C)(C)[C@@H]5CC[C@]43C)[C@@H]12 | 62.7 |
| COc1ccccc1C(=O)/C=C/c1cc2cccc(OC)c2[nH]c1=O | -5.37 |
| N#Cc1c(-c2ccc(F)cc2)c(C#N)c2c(C#N)c(N)nn2c1N | 103 |
| O=C1c2ccccc2C(=O)c2c1oc1c2c(=O)[nH]c2ccccc21 | 35.6 |
| COC(=O)c1cc2c3c(cc(O)c2[nH]1)N(C(=O)C1Cc2cc(OC)c(OC)c(OC)c2N1)CC3CCl (centres undefined) | -50.5 |
| COCCOCCOCc1n(Cc2ccc3ccccc3n2)c2ccccc2[n+]1Cc1ccc2ccccc2n1 | 19.9 |

----------
- Tested on: SK-MEL-2 melanoma
- Run description: NCI-60 one-dose screen, 48 h (100 = growth as untreated, 0 = no growth, -100 = all killed)
- Test context: 10 µM unless noted
About 83,000 compounds went through this panel and 20% of them were active in at least one assay; those are over-represented in the sample as a whole.
Listing of entries alongside the reported growth.

| Molecule | growth [%] |
| --- | --- |
| COc1ccc2nc(-c3ccc(Cl)cc3)cc(C(=O)N3N=C(c4ccc(N)cc4)CC3c3ccccc3)c2c1 (stereo not given) | 43.2 |
| Cc1nc2sc(C(=O)Nc3ccccc3)c(N)c2cc1C(C)O (stereo not given) | 39.3 |
| Oc1ccccc1-c1nc2c3ccccc3c3ccccc3c2o1 | 110 |
| COc1cccc(NC(=O)Nc2ccc(Oc3ncnc4[nH]c(C)c(C)c34)cc2)c1 | 100 |
| CCOC(=O)c1cnn(-c2nc(-c3ccc(F)cc3)c(C#N)c(N3CCOCC3)n2)c1N | 90 |
| COc1ccc(C2N(c3cc(OC)c(OC)c(OC)c3)C(=O)C2(F)F)cc1F (stereo not given) | 84.6 |
| COc1cc(C(C)c2ccc3c(ccn3C)c2)cc(OC)c1OC (stereo not given) | 30.5 |
| O=c1[nH]c2ccccc2cc1-c1nc2ccncc2[nH]1 | 73.9 |
| COc1ccc2c(c1)C1(C(=O)N2)C(C#N)=C(c2ccccc2)Nc2c1c(-c1ccccc1)nn2-c1ccccc1 (stereo not given) | 84.9 |
| O=C(CN1N=C(c2ccc(F)cc2)CCC1=O)Nc1nccs1 | 101 |
| COC(=O)c1ccc2c(c1)n(Cc1ccc3ccccc3c1)c[n+]2Cc1ccc2ccccc2c1 | 5.59 |
| S=c1ssnc1-c1cc2ccccc2o1 | 91.2 |
| Cc1cc(C)cc(Nc2nccc(-c3c(-c4ccc(F)cc4)ncn3C3CCNCC3)n2)c1 | 21.4 |
| Nc1cc(N)nc(SCC(=O)O)n1 | 99.7 |
| O=c1nc(-c2ccccc2)c2cc(-c3ccc(N4CCCC4)nc3)ccc2[nH]1 | 37.5 |
| Cc1ccc2nc3nc4ccc[nH]c4cc3c2c1 | 113 |
| C/C(=N/Nc1nc2ccccc2n1C)c1ccccn1 | 39.8 |
| Nc1ccc(C2=NN(C(=O)c3cc(-c4ccc(Cl)cc4)nc4ccccc34)C(c3ccccc3)C2)cc1 (stereo not given) | 37.1 |
| c1ccc2nc(N3CCOCC3)c(N3CCCCC3)nc2c1 | 95.2 |
| COc1cc(-c2csc(NC(=O)Nc3ccc(Cl)cc3)n2)cc(OC)c1OC | 29.3 |
| Cc1ccc(C(=O)/C(=C/c2ccc([N+](=O)[O-])cc2)S(=O)Cc2ccccc2)cc1 (stereo not given) | 57.9 |
| Cc1ccc(-c2nc(C#N)c(S(=O)(=O)N(C)CCO)o2)cc1 | 80.4 |
| Cn1cc(-c2ccc3c(c2)ncn3-c2ccc(CC(=O)Nc3cc(C(C)(C)C)on3)cc2)cn1 | 23.4 |
| Cc1ccc(C2CC(c3ccc(Nc4nc(NCCO)nc(NCCO)n4)cc3)=NN2c2ccc(Cl)cc2)cc1 (stereo not given) | 70.6 |
| C#C[C@@]1(O)[C@@H](CO)O[C@@H](n2cc(I)c3c(N)ncnc32)[C@@H]1O | -27.6 |
| [2H]c1nc(Nc2ncc3cc(C(=O)N(C)C)n(C4CCCC4)c3n2)c([2H])c([2H])c1N1C([2H])([2H])C([2H])([2H])NC([2H])([2H])C1([2H])[2H] | 83.9 |
| COC(=O)/C=C/c1cc(OC)c2c(c1)[C@@H](C(=O)OC)[C@H](c1ccc(OC)c(OC)c1)O2 | 31.4 |
| CCOC(=O)c1c(C)nc2c(c1N)/C(=C/c1ccc[nH]1)C(=O)N2Cc1ccc(C(F)(F)F)cc1 | 75.5 |
| O=C(CN1N=C(c2ccc(F)cc2)CCC1=O)Nc1nc2ccccc2s1 | 92.7 |
| CC1CCCN(CCCCCOc2ccc3oc4ccc(Cl)cc4c(=O)c3c2)C1 (stereo not given) | 96.7 |
| N#CC(C#N)=C1NC(c2ccccc2)=C(c2ccccc2)C(c2ccccc2Cl)=C1C#N | 94.8 |
| CN(C)CSc1nc2ccccc2s1 | 101 |
| CCSc1ccc(C2C(Br)C(=O)N2c2cc(OC)c(OC)c(OC)c2)cc1 (stereo not given) | 63.7 |
| COc1cc(NC(=O)Nc2cnc(Nc3ccc(N4CCOCC4)cc3)nc2Oc2ccc(F)cc2)cc(OC)c1 | 101 |
| CCN(CC)CC#CCOC(=O)[C@]1(C)CCC[C@]2(C)[C@H]3C[C@H]4C(C(C)C)=C[C@]3(CC[C@H]21)[C@@H]1C(=O)CCC(=O)[C@@H]14 | 72.3 |
| O=C(O)c1ccc(-n2cc(/C=N/Nc3ccc(Cl)cc3Cl)c(-c3ccccc3)n2)cc1 | 91.6 |
| CC1(C)Cc2c(Br)c(Br)c(Br)c(OCC(O)CN3CCOCC3)c2O1 (stereo not given) | -46.5 |
| O=C1NN(c2ccccc2)C(c2ccc3c(c2)OCO3)N2CCC[C@@H]12 (stereo not given in full) | 89.8 |
| CC(/C=C/c1ccccc1)=N/NC(=O)c1ccncc1 | 106 |
| O=C1CC23OC(C(O)c4ccccc4N12)C1C(c2ccccc2)=NOC13 (stereo not given) | 40.8 |
